TESTED_ON: AxCT mask27 EGFR EH104 L060 version 1
# Percent cleavage annotations
Numeric answer only, unit % assumed.

• MMP-1 (protein) FVLTEGNPRWEQTHLTYRIENYTPDLPRADVDHAIEKAFQLWSNVTPLTFTKVSEGQADIMISFVRGDHRDNSPFDGPGGNLAHAFQPGPGIGGDAHFDEDERWTNNFREYNLHRVAAHELGHSLGLSHSTDIGALMYPSYTFSGDVQLAQDDIDGIQAIYGRSQNPVQPIGPQTPKACDSKLTFDAITTIRGEVMFFKDRFYMRTNPFYPEVELNFISVFWPQLPNGLEAAYEFADRDEVRFFKGNKYWAVQGQNVLHGYPKDIYSSFGFPRTVKHIDAALSEENTGKTYFFVANKYWRYDEYKRSMDPGYPKMIAHDFPGIGHKVDAVFMKDGFFYFFHGTRQYKFDPKTKRILTLQKANSWFNCRKN = 0

Supply Percent cleavage value. Item: Cathepsin G (protein) IIGGRESRPHSRPYMAYLQIQSPAGQSRCGGFLVREDFVLTAAHCWGSNINVTLGAHNIQRRENTQQHITARRAIRHPQYNQRTIQNDIMLLQLSRRVRRNRNVNPVALPRAQEGLRPGTLCTVAGWGRVSMRRGTDTLREVQLRVQRDRQCLRIFGSYDPRRQICVGDRRERKAAFKGDSGGPLLCNNVAHGIVSYGKSSGVPPEVFTRVSSFLPWIRTTMRS 0
